Sourced from patent US20070077617

- TARGET DESC: fusion protein PRP
MEASUREMENT NAME: relative cleavage efficiency

{"columns": ["PROTEIN", "relative cleavage efficiency"],
 "data": [
  ["OmpT protease variant OmpT D97Q (protein) STETLSFTPDNINADISLGTLSGKTKERVYLAEEGGRKVSQLDWKFNNAAIIKGAINWDLMPQISIGAAGWTTLGSRGGNMVDQDWMDSSNPGTWTQESRHPDTQLNYANEFDLNIKGWLLNEPNYRLGLMAGYQESRYSFTARGGSYIYSSEEGFRDDIGSFPNGERAIGYKQRFKMPYIGLTGSYRYEDFELGGTFKYSGWVESSDNDEHYDPGKRITYRSKVKDQNYYSVAVNAGYYVTPNAKVYVEGAWNRVTNKKGNTSLYDHNNNTSDYSKNGAGIENYNFITTAGLKYTF", "less than 3%"],
  ["OmpT protease variant OmpT D97G (protein) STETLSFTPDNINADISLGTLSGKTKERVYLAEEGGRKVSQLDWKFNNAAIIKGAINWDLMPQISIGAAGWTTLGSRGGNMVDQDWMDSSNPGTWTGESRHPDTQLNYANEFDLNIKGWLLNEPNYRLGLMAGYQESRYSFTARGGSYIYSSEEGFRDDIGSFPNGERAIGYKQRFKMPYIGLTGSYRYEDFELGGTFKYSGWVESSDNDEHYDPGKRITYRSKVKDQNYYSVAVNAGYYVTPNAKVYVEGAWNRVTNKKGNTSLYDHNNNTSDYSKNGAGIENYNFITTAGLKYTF", "less than 3.0%"],
  ["OmpT protease variant OmpT D97W (protein) STETLSFTPDNINADISLGTLSGKTKERVYLAEEGGRKVSQLDWKFNNAAIIKGAINWDLMPQISIGAAGWTTLGSRGGNMVDQDWMDSSNPGTWTWESRHPDTQLNYANEFDLNIKGWLLNEPNYRLGLMAGYQESRYSFTARGGSYIYSSEEGFRDDIGSFPNGERAIGYKQRFKMPYIGLTGSYRYEDFELGGTFKYSGWVESSDNDEHYDPGKRITYRSKVKDQNYYSVAVNAGYYVTPNAKVYVEGAWNRVTNKKGNTSLYDHNNNTSDYSKNGAGIENYNFITTAGLKYTF", "less than 3.0%"],
  ["OmpT protease variant OmpT D97A (protein) STETLSFTPDNINADISLGTLSGKTKERVYLAEEGGRKVSQLDWKFNNAAIIKGAINWDLMPQISIGAAGWTTLGSRGGNMVDQDWMDSSNPGTWTAESRHPDTQLNYANEFDLNIKGWLLNEPNYRLGLMAGYQESRYSFTARGGSYIYSSEEGFRDDIGSFPNGERAIGYKQRFKMPYIGLTGSYRYEDFELGGTFKYSGWVESSDNDEHYDPGKRITYRSKVKDQNYYSVAVNAGYYVTPNAKVYVEGAWNRVTNKKGNTSLYDHNNNTSDYSKNGAGIENYNFITTAGLKYTF", "less than 3%"],
  ["OmpT protease (wild-type, E. coli mature OmpT protease) (protein) STETLSFTPDNINADISLGTLSGKTKERVYLAEEGGRKVSQLDWKFNNAAIIKGAINWDLMPQISIGAAGWTTLGSRGGNMVDQDWMDSSNPGTWTDESRHPDTQLNYANEFDLNIKGWLLNEPNYRLGLMAGYQESRYSFTARGGSYIYSSEEGFRDDIGSFPNGERAIGYKQRFKMPYIGLTGSYRYEDFELGGTFKYSGWVESSDNDEHYDPGKRITYRSKVKDQNYYSVAVNAGYYVTPNAKVYVEGAWNRVTNKKGNTSLYDHNNNTSDYSKNGAGIENYNFITTAGLKYTF", "less than 3%"],
  ["OmpT protease variant OmpT D97N (protein) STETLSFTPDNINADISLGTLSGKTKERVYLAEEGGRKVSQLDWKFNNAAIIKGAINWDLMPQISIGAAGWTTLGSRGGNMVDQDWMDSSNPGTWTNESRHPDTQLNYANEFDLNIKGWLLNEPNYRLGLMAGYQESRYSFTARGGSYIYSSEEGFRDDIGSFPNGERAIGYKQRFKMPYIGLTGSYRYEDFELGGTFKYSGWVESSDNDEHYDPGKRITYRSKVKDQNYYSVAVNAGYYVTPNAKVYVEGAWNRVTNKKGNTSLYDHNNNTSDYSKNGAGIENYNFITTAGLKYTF", "less than 3%"],
  ["OmpT protease variant OmpT D97E (protein) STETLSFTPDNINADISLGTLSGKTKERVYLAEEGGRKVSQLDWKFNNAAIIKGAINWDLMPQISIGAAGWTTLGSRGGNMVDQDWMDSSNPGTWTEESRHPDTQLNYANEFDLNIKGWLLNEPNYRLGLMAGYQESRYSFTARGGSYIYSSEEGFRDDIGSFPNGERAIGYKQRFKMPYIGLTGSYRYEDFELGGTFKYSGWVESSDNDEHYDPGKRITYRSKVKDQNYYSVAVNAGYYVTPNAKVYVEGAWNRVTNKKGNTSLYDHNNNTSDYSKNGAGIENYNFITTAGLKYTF", "less than 3%"]
]}

Then there is this protein:
Prompt: Please give the measured relative cleavage efficiency for this protein: OmpT protease variant OmpT D97C (protein) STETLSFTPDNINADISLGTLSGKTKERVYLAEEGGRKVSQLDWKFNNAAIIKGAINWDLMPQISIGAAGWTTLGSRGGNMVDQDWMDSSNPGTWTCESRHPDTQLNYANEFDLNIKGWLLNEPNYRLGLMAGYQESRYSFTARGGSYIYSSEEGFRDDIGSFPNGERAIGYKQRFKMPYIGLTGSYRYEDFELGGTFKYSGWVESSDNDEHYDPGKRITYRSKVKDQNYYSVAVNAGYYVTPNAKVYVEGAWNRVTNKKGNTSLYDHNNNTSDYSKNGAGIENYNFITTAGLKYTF
Response: less than 3%
